test system: Plasmodium falciparum; assay: GSK_TCMDC: Inhibition of Plasmodium falciparum 3D7 in whole red blood cells, using parasite LDH activity as an index of growth. Test compounds present at 2uM; assay type: functional
MEASURE: Inhibition (%)
Your answer should be a plain number; it is taken to be in %.

Lookup: I am curious: what Inhibition value has been reported for CCOc1c(CNCCCCCCNCc2ccc3ccccc3c2OCC)ccc2ccccc12.CS(=O)(=O)O ?
Found: 99

Lookup: I am curious: what Inhibition value has been reported for CCCCCCCN(CCCCCCC)CCCC(=O)Nc1ccnc2ccc(OC)cc12.O=C(O)C(=O)O ?
Found: 100

Lookup: I am curious: what Inhibition value has been reported for CCN(CCNS(C)(=O)=O)c1ccc(N)c(C)c1.O.O=S(=O)(O)O ?
Found: 91

Lookup: I am curious: what Inhibition value has been reported for COc1ccc(NC(=O)[C@H](C)Nc2cc(C)nc(NCC3CCCCC3)n2)cc1.O=C(O)C(F)(F)F ?
Found: 92

Lookup: I am curious: what Inhibition value has been reported for COc1cc(C(=O)NCCCN2CCN(c3cccc(Cl)c3)CC2)ccc1-c1cc2cc(Cl)c(Cl)cc2[nH]1 ?
Found: 100

Lookup: I am curious: what Inhibition value has been reported for O=c1c2ccc(Sc3ccccn3)cc2n(-c2ccccc2)c2cc(Sc3ccccn3)ccc12 ?
Found: 89

Lookup: I am curious: what Inhibition value has been reported for Cc1cc(NCc2ccccc2)nc(NCc2ccccc2)n1 ?
Found: 91

Lookup: I am curious: what Inhibition value has been reported for Cl.NC1CCN(CCc2ccc(NS(=O)(=O)c3ccc(-c4ccccc4)cc3)cc2)CC1 ?
Found: 100

Lookup: I am curious: what Inhibition value has been reported for COc1cc2c(cc1C(F)(F)F)N(C(=O)Nc1cc(F)cc(-c3cccnn3)c1)CC2 ?
Found: 90

Lookup: I am curious: what Inhibition value has been reported for CC(=O)N1N=C(c2ccc(F)cc2)Sc2c1nc(-c1ccccc1)n2C(C)=O ?
Found: 99

Lookup: I am curious: what Inhibition value has been reported for Cl.Oc1c(Cl)cc(-c2ccccc2)cc1CNC1CCCCC1 ?
Found: 97

Lookup: I am curious: what Inhibition value has been reported for Cc1nc(C)c(C2CCC(c3ccc(Cl)cc3)CC2)c(O)c1Cl (centres undefined) ?
Found: 98

Lookup: I am curious: what Inhibition value has been reported for CC(C)(C)c1ccc2[nH]c(-c3ccc(C(=O)NCCCc4ccccc4)cc3)nc2c1 ?
Found: 95

Lookup: I am curious: what Inhibition value has been reported for COc1ccc(C2C(C(=O)Nc3ccccc3)=C(C)Nc3c(C(=O)Nc4ccccc4)cnn32)cc1 (centres undefined) ?
Found: 85

Lookup: I am curious: what Inhibition value has been reported for Cc1ccc(CON2C(N)=NC(N)=NC2(C)C)c(Cl)c1.Cc1ccc(CON2C(N)=NC(N)=NC2(C)C)cc1Cl ?
Found: 91
